# reported growth; entries follow
System: HS 578T breast
Test: NCI-60 one-dose screen, 48 h (100 = growth as untreated, 0 = no growth, -100 = all killed)
Details: 10 µM unless noted
Compounds without any hit were thinned out: in the full panel of roughly 83,000, 20% have a hit. Activity calls are given as the source filed them. How the source made its calls: active means growth percent below 10; inactive means the rest.

{"columns": ["molecule", "growth"],
 "data": [
  ["C=C1c2c(C)nn(-c3ccc(C#CCOC4OC(CO)C(O)C(O)C4O)cc3)c2N(C)C23C[C@H]1C1(C)c4c(C)nn(-c5ccc(C#CCOC6OC(CO)C(O)C(O)C6O)cc5)c4N(C)C(C)(C[C@H]12)C3 (stereo not given in full)", "1.04% (active)"],
  ["O=C(/C(=C/c1cccc([N+](=O)[O-])c1)c1ccccc1)c1ccccc1", "44.9% (inactive)"],
  ["Oc1ccc(-c2nn(-c3ccccc3)cc2-c2nc3ccccc3s2)cc1", "92.4% (inactive)"],
  ["CC12CCCCC1C(C(N)=O)C(=O)O2 (stereo not given)", "110% (inactive)"],
  ["COc1ncc(-c2ccc3nccc(C#CCN4CCN(S(C)(=O)=O)CC4)c3c2)cc1NS(=O)(=O)c1ccc(F)cc1F", "-13.9% (active)"]
]}

---

Tested on: MCF7 breast
Test: NCI-60 one-dose screen, 48 h (100 = growth as untreated, 0 = no growth, -100 = all killed)
Conditions: 10 µM unless noted
The panel holds about 83,000 compounds, 20% with a hit somewhere; the sample as a whole holds those more often.
Lab note - cut at 70% for growth: MET if strictly below, NOT MET if not.

{"columns": ["compound", "group_label"],
 "data": [
  ["CCc1ccc(CCN2C(=O)c3ccccc3C2=O)nc1", "NOT MET"],
  ["Nc1ccccc1-c1ccc([N+](=O)[O-])cc1", "MET"],
  ["O=C1c2ccccc2C(=O)c2c1cccc2-n1nnc2ccccc21", "NOT MET"],
  ["COc1cc2c(C#N)n3c(c2cc1OC)C(=O)C(c1ccccc1)Oc1ccccc1-3 (stereo unspecified)", "NOT MET"],
  ["CCCOc1ccc2c(c1)CC[C@@H]1[C@@H]2CC[C@@]2(C)[C@H]1CC[C@]2(C)O", "NOT MET"],
  ["O=c1cc(-c2cccnc2)oc2c1ccc1ccccc12", "NOT MET"],
  ["CC(=O)c1cc(C(=O)c2ccc3c(c2)Sc2ccccc2N3)c2c(C)cc(C)cn12", "MET"],
  ["COc1ccc2c(c1)nc(N)c1c3cc(OC)c(OC)cc3cn21", "MET"],
  ["O=[N+]([O-])c1ccc(N/N=C\\c2ccccc2[N+](=O)[O-])nc1", "NOT MET"],
  ["C/C(=C\\CCc1ccsc1)CC/C=C(\\C)CCCN1CCC(CO)CC1", "MET"],
  ["Cc1nn(-c2ccc(Cl)cc2)c2nc3c(nc12)C(=O)C(=O)c1ccccc1-3", "MET"]
]}

---

Tested on: KM12 colon
Test: NCI-60 one-dose screen, 48 h
Settings: 10 µM unless noted
This is part of a sample that, as a whole, favours compounds with a hit. Of some 83,000 tested, about 20% had one in any assay. Calls of active or inactive are those of the source. The calls were made as follows: active = growth percent below 10; inactive = the rest.
Labels: active, inactive

{"columns": ["compound", "group_label"],
 "data": [
  ["Clc1ccc2c(Nc3ccc4oc(NCCN5CCCC5)nc4c3)ccnc2c1", "inactive"],
  ["O=C(NCCCO)c1cc(Cl)ccc1O", "inactive"],
  ["Cc1nc2cc(NC(=O)CN3CCN(CCN4C(=O)c5cccc6cccc(c56)C4=O)CC3)ccc2s1", "inactive"],
  ["O=c1[nH]c(=O)n(C2CC(O)C(CO)O2)cc1C(F)(F)F (stereo unspecified)", "inactive"],
  ["CCC1=C(c2ccc(OC)cc2)C(C)Oc2cc(OC(C)=O)ccc21 (stereo unspecified)", "inactive"],
  ["CC(C)[C@]12O[C@H]1[C@@H]1O[C@]13[C@]1(O[C@H]1C[C@H]1C4=C(CC[C@@]13C)C(=O)OC4)[C@@H]2OC(=O)CN(C)C", "active"],
  ["COc1cc(/C=C2\\COc3ccc(O)c(O)c3C2=O)cc(OC)c1", "active"],
  ["CCCCCCOc1ccc(/C=N/NC(N)=S)cc1", "inactive"],
  ["COc1ccc(-c2oc3cc(O)c(OC)c(O)c3c(=O)c2OC)cc1O", "active"],
  ["COc1cc2c(C#N)n3c(c2cc1OC)C(=O)C(c1ccccc1)Oc1ccccc1-3 (stereo unspecified)", "inactive"],
  ["Cc1c(C(N)=O)sc2nc(SCC(=O)Nc3ccc(Cl)cc3)n(-c3ccccc3)c(=O)c12", "inactive"],
  ["CC(C)(C)c1ccc(S(=O)(=O)O)s1", "inactive"],
  ["COc1cc(/C=C/C(=O)c2c(-c3ccc(F)cc3)nc3sc(C)nn23)cc(OC)c1OC", "inactive"],
  ["O=[N+]([O-])c1ccc(N/N=C/c2c(O)ccc3ccccc23)nc1", "inactive"],
  ["O=C1/C(=N/O)CCc2ccccc21", "inactive"],
  ["CC1CC(C)/C(=N/NC(N)=O)C(C(O)CC2CCC(=O)NC2=O)C1 (stereo unspecified)", "inactive"],
  ["COc1ccc2c3c(c(OCCCN(C)C)nc2c1)-c1ccc(Cl)cc1C3=O", "active"],
  ["NC(=Nc1ccccc1)SCCCCSC(N)=Nc1ccccc1", "inactive"],
  ["Cc1ccc(C(C)C)cc1NC(=O)Nc1ccc([N+](=O)[O-])cc1", "active"],
  ["CCN1C(=O)c2ccc3c4c(ccc(c24)C1=O)C(=O)N(CCCNCc1ccccc1OC)C3=O", "active"],
  ["C[C@]12CC[C@@H]3c4ccc(O)c([N+](=O)[O-])c4CC[C@H]3[C@@H]1CC[C@@H]2NS(=O)(=O)c1ccc(C(F)(F)F)cc1", "inactive"]
]}

---

Tested on: SF-268 CNS
Assay: NCI-60 one-dose screen, 48 h (100 = growth as untreated, 0 = no growth, -100 = all killed)
Conditions: 10 µM unless noted
Compounds without any hit were thinned out: in the full panel of roughly 83,000, 20% have a hit. Activity calls are given as the source filed them. The calls were made as follows: active = growth percent below 10; inactive = the rest.
# reported growth; entries follow

{"columns": ["compound", "growth"],
 "data": [
  ["O=C(Nc1cccc([N+](=O)[O-])c1)c1cccc(C(=O)Nc2cccc([N+](=O)[O-])c2)c1", "30.2% (inactive)"],
  ["CCN(CC)CCOc1ccccc1-n1c(C)ccc1-c1ccccc1", "78.5% (inactive)"],
  ["O=C(Nc1ccc(Cl)cc1)Nc1ccc(Nc2nncc3ccccc23)cc1", "42.4% (inactive)"],
  ["Cc1cc(NC(=O)Nc2cccc3ccccc23)no1", "108% (inactive)"],
  ["CC(O)c1nc2c(c(=O)n(C)c(=O)n2C)n1C (stereo unspecified)", "107% (inactive)"],
  ["O=C(c1ccccc1)c1ccccc1Cl", "109% (inactive)"]
]}

---

System: SK-MEL-5 melanoma
Assay: NCI-60 one-dose screen, 48 h
Conditions: 10 µM unless noted
The panel holds about 83,000 compounds, 20% with a hit somewhere; the sample as a whole holds those more often. Activity calls are given as the source filed them. The calls were made as follows: active = growth percent below 10; inactive = the rest.
Labels: label 1 = active, label 0 = inactive

{"columns": ["molecule", "group_label"],
 "data": [
  ["C=C1c2c(C)nn(-c3ccc(C#CCOC4OC(CO)C(O)C(O)C4O)cc3)c2N(C)C23C[C@H]1C1(C)c4c(C)nn(-c5ccc(C#CCOC6OC(CO)C(O)C(O)C6O)cc5)c4N(C)C(C)(C[C@H]12)C3 (stereo not given in full)", "label 1"],
  ["O=C(C(Br)Br)C(Br)C(Br)c1ccccc1 (stereo not given)", "label 0"],
  ["c1ccc(-c2nnc(Nc3nnc(-c4ccccc4)s3)s2)cc1", "label 0"],
  ["CCN1C[C@@H](C)n2c(c(O)c3c(=O)n(Cc4ccc(F)c(Cl)c4)nc(C(=O)NC)c32)C1=O", "label 0"],
  ["CCOC(=O)/C=C(/C)Sc1cc(O)c2ccccc2c1O", "label 1"],
  ["O=C(Nc1ccc(Cl)cc1)c1cc2c(cc1O)[nH]c1ccccc12", "label 1"],
  ["O=C1NC(=O)/C(=C\\c2ccccc2)C2=C1CCCC2", "label 1"],
  ["Cn1cc(-c2nc(-c3c[nH]c4ncc(F)cc34)cs2)c2cccnc21", "label 0"],
  ["CCN(CC)c1ccc(N=Nc2cc(Cl)ccc2Cl)c(NC(=O)CCC(=O)O)c1", "label 0"],
  ["c1cnc2n[nH]c(Nc3ncnc4c3sc3ncccc34)c2c1", "label 0"]
]}

---

Test system: OVCAR-5 ovarian
Test: NCI-60 one-dose screen, 48 h
Conditions: 10 µM unless noted
Description: Growth inhibition of the OVCAR-5 human tumor cell line is measured as a screen for anti-cancer activity. Cells are grown in 96 well plates and exposed to the test compound for 48 hours. Compounds are tested at a single concentration, which is 10^-5 M for most compounds. The reported endpoint is percent growth (GI% or GIPRCNT), where numbers from 0 - 100% represent growth inhibition, and numbers from -100% - 0 represent cell death. For example, a value of 40 represents 60% growth inhibition. […]
This is part of a sample that, as a whole, favours compounds with a hit. Of some 83,000 tested, about 20% had one in any assay. Active and inactive are the calls of the source. Rule for the calls: active = growth percent below 10; inactive = the rest.
Labels: true (1) for active, false (0) for inactive

{"columns": ["molecule", "group_label"],
 "data": [
  ["CCS(=O)(=O)OCCCl", "false (0)"],
  ["Clc1ccccc1[C@@H]1C[C@@H]2Cc3cc(Br)c4ccccc4c3N1O2", "false (0)"],
  ["Nc1nonc1-c1nc2ccccc2n1CC(=O)Nc1ccc2c(c1)COC2=O", "false (0)"],
  ["O=C(NCCc1ccccc1)C1CCC(=O)N1Cc1ccc(Br)cc1 (stereo unspecified)", "false (0)"],
  ["N#CCCN(CCO)c1ccccc1", "false (0)"],
  ["O=[P@@]1(c2ccccc2)O[C@H](COCc2ccccc2)[C@@H](OCc2ccccc2)[C@H](OCc2ccccc2)[C@H]1NCc1ccccc1", "false (0)"],
  ["C[C@]12CC[C@@H]3c4ccc(O)c([N+](=O)[O-])c4CC[C@H]3[C@@H]1CC[C@@H]2NS(=O)(=O)c1ccc(C(F)(F)F)cc1", "false (0)"],
  ["O[C@@H]1Cc2ccc3ccccc3c2N[C@H](c2ccoc2)C1", "false (0)"],
  ["Fc1ccc([C@@H]2CCNC[C@H]2COc2ccc3c(c2)OCO3)cc1", "false (0)"],
  ["O=C1OCC/C1=C\\OCCCO/C=C1\\CCOC1=O", "false (0)"],
  ["Cc1cc2c(cc1[N+](=O)[O-])NC(CNC(C)C)CC2 (stereo unspecified)", "false (0)"],
  ["COc1ccc(/C(=C2\\O[C@@H]([C@H](O)CO)[C@H]3OC(C)(C)O[C@@H]23)c2cc(OC)c(OC)c(OC)c2)cc1O", "false (0)"],
  ["O=C(CCc1nnc2sc(Cc3ccccc3Cl)nn12)c1nc2ccccc2[nH]1", "false (0)"],
  ["Cc1cc(O)c2c(c1)C[C@H]1[C@@H]3CC[C@H]4CC(=O)CC[C@]4(C)[C@H]3CC(=O)[C@]21C", "false (0)"],
  ["CN=C(NC)N/N=C(C)\\C=N\\NC(=NC)NC", "false (0)"],
  ["CC(=O)NC1(C(=O)O)CCCC1", "false (0)"],
  ["CN1COc2ccc3ccccc3c2C1", "false (0)"],
  ["Cc1nc2cc(NC(=O)CN3CCN(CCN4C(=O)c5cccc6cccc(c56)C4=O)CC3)ccc2s1", "false (0)"],
  ["CCSc1nnc2n(Cc3ccccc3)c(=O)c3c(C)c(C(N)=O)sc3n12", "false (0)"],
  ["COc1ccc2c(c1)C(=O)/C(=C/c1cccc(OCC(=O)c3ccccc3)c1)CC2", "false (0)"],
  ["O=C1NC(=O)/C(=C\\c2ccccc2)C2=C1CCCC2", "false (0)"],
  ["O=c1ccn(C2CCCO2)c(=O)[nH]1 (stereo unspecified)", "false (0)"],
  ["Cc1cc(NCCCNc2ccnc3cc(Cl)ccc23)nc(N2CCN(C)CC2)n1", "false (0)"],
  ["Fc1ccc(-c2nnc(-c3c(-c4ccc(F)cc4)nc4ncccn34)o2)cc1", "false (0)"],
  ["CCOc1cc(C(C)(C)C)ccc1C1=N[C@H](c2ccc(Cl)cc2)[C@H](c2ccc(Cl)cc2)N1C(=O)N1CCN(CC#Cc2cccc3c2CN([C@@H]2CCC(=O)NC2=O)C3=O)CC1", "false (0)"],
  ["CSc1nnc(C2=CC(=O)c3ccccc3C2=O)n1-c1ccccc1", "false (0)"],
  ["Cc1nn(-c2ccc(Cl)cc2)c2nc3c(nc12)C(=O)C(=O)c1ccccc1-3", "false (0)"],
  ["COc1cc(Oc2cc(-c3cccnc3)ccc2NC(=O)Nc2ccc(F)cc2F)cc(OC)c1OC", "false (0)"],
  ["COc1cc2cn3c4ccc(O)cc4nc(N)c3c2cc1OC", "false (0)"],
  ["Fc1ccc(-c2nc(Nc3ccc(-c4nc5ccccc5[nH]4)cc3)nc(N3CCOCC3)n2)cc1", "true (1)"],
  ["CCC(c1ccccc1)c1noc(CCN(CC)CC)n1 (stereo unspecified)", "false (0)"],
  ["c1ccc2cc(C[n+]3ccn(CCCCCCCn4cc[n+](Cc5ccc6ccccc6c5)c4)c3)ccc2c1", "false (0)"],
  ["O=C(Nc1nc2ccccc2s1)c1cc(-c2ccc(F)cc2)n2nc(-c3ccccc3)cc2n1", "false (0)"],
  ["COc1ccc(C2CC(c3ccc(OC)c(OC)c3)=NN2C(=O)c2cc(OC)c(OC)c(OC)c2)c(OC)c1 (stereo unspecified)", "false (0)"],
  ["O=C(Cn1ccnc1)NC(c1ccccc1)c1ccccc1", "false (0)"],
  ["CN(C(=O)c1ccccc1)N(C)C(=O)c1ccccc1", "false (0)"],
  ["O=C(O)c1ccc(NC(=O)c2cccc(Nc3ccnc(C(F)(F)F)c3)c2)cc1", "false (0)"],
  ["Nc1nc2ncc(CCNc3ccc(C(=O)NC(CCC(=O)O)C(=O)O)cc3)nc2c(=O)[nH]1 (stereo unspecified)", "false (0)"],
  ["O=C(Cc1ccccn1)C(F)(F)C(F)(F)C(F)(F)F", "false (0)"],
  ["Cn1cc(-c2nc(-c3c[nH]c4ncccc34)cs2)c2cccnc21", "false (0)"],
  ["O=C(Nc1cccc([N+](=O)[O-])c1)c1cccc(C(=O)Nc2cccc([N+](=O)[O-])c2)c1", "false (0)"]
]}

Values compiled from PubChem BioAssay (NCI).
